The measurements presented in this section are drawn from ChEMBL document CHEMBL1201862.

Measured GI50 values are reported for all entries that follow.
Test system: LOX IMVI
measurement_protocol: NCI tumour cell line growth inhibition, 48 h
Activity calls are given as the source filed them. Rule as the data show it: active = GI50 up to about 1.1 µM and inactive = higher.

Query: Which GI50 is reported for this compound? COc1cc(/C=C2\C[C@H]3[C@@H]4CC=C5C[C@@H](OC(C)=O)CC[C@]5(C)[C@H]4CC[C@]3(C)\C2=N\O)cc(OC)c1OC
Response: 4.32 µM (inactive)

Query: And COC(=O)[C@@H]1CCc2nc3ccccc3c(=O)n21 ?
Response: > 100 µM (inactive)

Query: Try the compound N#C/C(=C/C=C/c1ccco1)C(N)=O
Response: > 10 µM (inactive)

* * *

Tested on: CCRF-CEM
measurement_protocol: NCI tumour cell line growth inhibition, 48 h
The source made the active and inactive calls. Rule as the data show it: active = GI50 up to about 1.1 µM and inactive = higher.
Outcome (select one): T = active, F = inactive

Illustrative cases are given below, each with its answer.
| molecule | qualitative_label |
| --- | --- |
| COc1ccc2nc3cc(Cl)ccc3c(Nc3ccc(O)c(CN4CCN(C)CC4)c3)c2c1 | T |
| O=C1C(c2ccccc2)=[N+]([O-])c2ccc(Cl)cc21 | F |
| Cc1ccc(S(=O)(=O)Oc2cc(-c3ccccc3)nc3ccccc23)cc1 | F |
| O=S1(=O)OCCOS(=O)(=O)C1(Br)Br | F |
| COc1ccc(/C=C/C(=O)c2sc(-c3cccnc3)nc2C)cc1 | F |
| CC(=O)O[C@@H]1CC(C)C2CC2C2=C(C(O)OC2O)[C@@H]1C(C)CCC=C(C)C (stereo partly drawn) | F |
| COC(=O)C(=O)C(C(=O)C(=O)Nc1ccc(Cl)c(Cl)c1)c1nc2ccc(C(=O)c3ccccc3)cc2nc1O (stereo not drawn) | F |

Query: Assay result, entry CCc1nc(N)nc(N)c1-c1ccc(Cl)c(/N=N/N(C)C)c1 — outcome?
Response: F

* * *

Measured GI50 values are reported for all entries that follow.
System: RPMI-8226
measurement_protocol: NCI tumour cell line growth inhibition, 48 h
The source made the active and inactive calls. No stated cut-off is given here; in the data, active = GI50 up to about 1.1 µM and inactive = higher.

A selection of reference data follows.
| compound | GI50 |
| --- | --- |
| Cc1cc(=O)oc2c(C)c(OCCCOc3ccc4c(C)cc(=O)oc4c3C)ccc12 | > 100 µM (inactive) |
| O=C(/C=C/c1ccc(C(F)(F)F)cc1)c1c([O-])on[n+]1-c1ccccc1 | 0.261 µM (active) |
| CCC12CCC(O)C1N(C)CCC2Sc1ccccc1 (stereo unspecified) | 59.3 µM (inactive) |
| COP(=O)(OC)C12CCOCCN1c1ccccc1C2=O (stereo unspecified) | > 100 µM (inactive) |
| COC(=O)C(=O)C(C(=O)C(=O)Nc1ccc(Cl)c(Cl)c1)c1nc2ccc(C(=O)c3ccccc3)cc2nc1O (stereo unspecified) | 40.2 µM (inactive) |

Here is another compound to look at.
Query: Any idea what GI50 was measured for C/C1=C\CC[C@@]2(C)O[C@@H]2[C@H]2OC(=O)C(C)C2C[C@H]1O (stereo partly specified) ?
Response: > 100 µM (inactive)

* * *

System: UO-31
measurement_protocol: NCI tumour cell line growth inhibition, 48 h
Activity calls are given as the source filed them. No stated cut-off is given here; in the data, active = GI50 up to about 1.1 µM and inactive = higher.
Please state which outcome applies, choosing from active, inactive

| compound | qualitative_label |
| --- | --- |
| CC1CC(=O)N2CCCNC2=C1C#N (configuration not stated) | inactive |

Query: Recorded test call requested for COc1c(/C=C/C=O)cc2c(c1OC)OCO2
Response: inactive

Query: Then what about the compound O=S1(=O)OCCOS(=O)(=O)C1(Br)Br ?
Response: inactive

Query: Same thing, different compound: O=C(O)c1nc2ccc(Cl)cc2[nH]c1=O
Response: inactive

Query: Another compound: N=c1oc2cc(O)ccc2cc1C(=O)Nc1cccc2ccccc12
Response: inactive

Query: How about O=S1(=O)C(=C(c2ccccc2)c2ccccc2)S(=O)(=O)c2ccccc21 ?
Response: inactive

Query: Nc1cc(CO)cc(Nc2nc3ccc(Cl)cc3c3[nH]c4ccccc4c23)c1 , same question.
Response: inactive

Query: Entry to check: CC1(C)Oc2ccccc2N2O[C@@H]3C(=O)N(c4ccccc4)C(=O)[C@@H]3C21c1ccccc1 (some centres not stated)
Response: inactive

Query: Same lookup for Cc1ccc(C(=N)Nc2ccccc2)cc1 , please.
Response: inactive

Query: Next up: O=[N+]([O-])c1nccn1COCCF
Response: inactive

Query: Queued: N#CCCC1(CCC#N)CCCCCCC(CCC#N)(CCC#N)C(=O)C1=O
Response: inactive

Query: Ok, now Nc1ncc(C=O)c(NCC2(CO)CCC2)n1
Response: inactive

Query: And what about the compound CC1=NOC(=O)/C1=C/c1ccc([N+](=O)[O-])cc1 ?
Response: inactive

Query: Also check N=C(N)SCc1ccc2c(c1)Sc1ccccc1O2
Response: inactive

Query: Follow-up item: CCOC(=O)N(C)C1(c2ccccc2)CCN(CCCC(=O)c2ccc(F)cc2)CC1
Response: active

Query: Try this compound too: Cc1cc(=O)oc2c(C)c(OCCCOc3ccc4c(C)cc(=O)oc4c3C)ccc12
Response: inactive

Query: Can you check CC(C)NC(=O)CN1CCN(C2=CC(=O)c3c(O)ccc(O)c3C2=O)CC1 next?
Response: inactive

* * *

System: OVCAR-5
measurement_protocol: NCI tumour cell line growth inhibition, 48 h
Active and inactive are the calls of the source. Cut-off read from the data, not from the text of the source: active = GI50 up to about 1.1 µM and inactive = higher.
metric_name: GI50

| molecule | result |
| --- | --- |
| CCCC(CCC)C(=O)O [VALPROIC ACID] | > 100 µM (inactive) |
| Cc1ccc(C)c(/C(=N\N=C(N)N)C2CC2)c1 | 29.9 µM (inactive) |
| O=S1OC2(c3ccccc3-c3ccccc32)c2ccccc21 (stereo not drawn) | > 100 µM (inactive) |
| COc1ccc2c(c1)CCc1c(CO)c(COC(=O)NC(C)C)n(C)c1-2 | 24.2 µM (inactive) |
| COc1cc(/C=N/c2ccc(Oc3ccc(Cl)cc3)c(Cl)c2)cc(OC)c1OC | 34.7 µM (inactive) |
| CCc1nc(N)nc(N)c1-c1ccc(Cl)c(/N=N/N(C)C)c1 | > 82 µM (inactive) |
| N#Cc1c(N)c(C(=O)O)nn(-c2cccc(C(F)(F)F)c2)c1=O | > 100 µM (inactive) |
| CC1(C)N=C(/C=N/O)C(C)(C)N1O | > 100 µM (inactive) |
| O=C1C2C(C(=O)N1c1ccccc1)C1c3ccccc3C2C2C(=O)N(c3ccccc3)C(=O)C21 (stereo not drawn) | 15.1 µM (inactive) |
| CCCCCCCCCCC/C=C(/C(=O)CCCO[Si](C)(C)C(C)(C)C)C(=O)OC | > 100 µM (inactive) |

Query: // query GI50 value for entry NC(=S)NC/C=C/Cl
Response: > 100 µM (inactive)

Query: Quick one: c1ccc2c(c1)N=c1cc3c(cc1N2)=NC12CCCCC1CC1=C(CCCC1)N32 (stereo not drawn)
Response: 5.36 µM (inactive)

Query: Further, for NC1c2c(Br)sc(N3CCCC3)c2C(=O)C1O (stereo not drawn) ?
Response: > 50 µM (inactive)

Query: Same question for CN(C)CCNc1ccc([N+](=O)[O-])c2sc3ccccc3c(=O)c12 please.
Response: 3.03 µM (inactive)

Query: Thanks! And N#CCCC1(CCC#N)CCCCCCC(CCC#N)(CCC#N)C(=O)C1=O ?
Response: > 100 µM (inactive)

* * *

Test system: OVCAR-4
measurement_protocol: NCI tumour cell line growth inhibition, 48 h
The source made the active and inactive calls. Cut-off read from the data, not from the text of the source: active = GI50 up to about 1.1 µM and inactive = higher.
This section presents compounds with their documented GI50 values.

Use the examples below as a reference point.
| compound | result |
| --- | --- |
| CC(C)(C)/N=C/N1C=Cc2nc3ccccc3cc2C1 | > 100 µM (inactive) |
| O=[N+]([O-])c1ccc(/N=N/c2c(O)ccc3cc(S(=O)(=O)O)ccc23)cc1 | > 100 µM (inactive) |

Query compound follows.
Query: Find GI50 (OVCAR-4) for the entry CCC1CN2CCc3cc(OC)c(OC)cc3C2CC1CC1c2cc(OC)c(OC)cc2CCN1C(=O)C(Cc1c[nH]c2ccccc12)NC(=O)OC(C)(C)C (stereo not drawn)
Response: 1.7 µM (inactive)

* * *

Tested on: MDA-MB-231
measurement_protocol: NCI tumour cell line growth inhibition, 48 h
The source made the active and inactive calls. Cut-off read from the data, not from the text of the source: active = GI50 up to about 1.1 µM and inactive = higher.
Here, each record is paired with measured GI50 data.

| compound | GI50 |
| --- | --- |
| CC[C@@]1(O)C(=O)OCc2c1cc1n(c2=O)Cc2c-1nc1ccccc1c2/C=N\NC(=O)C(N)CC(C)C (stereo not given in full) | 1.25 µM (inactive) |
| CC(C)=CCc1c2c(c(O)c3c(=O)c4c(oc13)-c1ccc(O)cc1OC4C=C(C)C)C=CC(C)(C)O2 (stereo not given) | 14.2 µM (inactive) |
| O=C1c2ccccc2C(=O)c2c1ccc(C1C(=O)c3ccccc3C1=O)c2-c1c(C2C(=O)c3ccccc3C2=O)ccc2c1C(=O)c1ccccc1C2=O | 47.3 µM (inactive) |
| CC(C)(C)C1CCC2c3c([nH]c4ccccc34)C3C(=O)N(c4ccc(C(=O)O)cc4)C(=O)C3C2C1 (stereo not given) | 15.5 µM (inactive) |
| Cc1nnc(SCc2nc(C#N)c(C#N)nc2CSc2nnc(C)s2)s1 | 16.6 µM (inactive) |
| Cc1ccc(C(=N)Nc2ccccc2)cc1 | > 100 µM (inactive) |
| c1ccc(/N=C2/SC(c3ccccc3)(c3ccccc3)c3ccccc32)cc1 | > 100 µM (inactive) |
| N=C(N)NS(=O)(=O)c1ccc(NC(=O)c2ccc3nc4ccccc4c(Nc4ccc(S(N)(=O)=O)cc4)c3c2)cc1 | > 100 µM (inactive) |
| CCOC(=O)Nn1cnnc1C | > 100 µM (inactive) |

Turning to the following compound.
Query: Item CN1c2ccccc2C2=C(c3ccccc3)CC[C@@H](C(=O)N3C4CC5CC[C@@]4(CS3(=O)=O)C5(C)C)[C@@H]21 (stereo not given in full) has what recorded GI50?
Response: > 100 µM (inactive)
